Where these numbers come from: ChEMBL document CHEMBL1157539

Inhibition listing for selected compounds.
Tested on: Plasmodium falciparum
assay: GSK_TCMDC: Inhibition of Plasmodium falciparum 3D7 in whole red blood cells, using parasite LDH activity as an index of growth. Test compounds present at 2uM
Assay type: functional
The answer is to be given in %; state only the numeric part.

Some solved entries appear below for comparison.
{"compound": "O=[N+]([O-])c1cccc(S(=O)(=O)N2CCN(CC(O)COc3ccc(-c4ccccc4)cc3)CC2)c1 (centres undefined)", "value.kind": "Inhibition", "unit.name": "%", "observed": 94}
{"compound": "CC(C(=O)Nc1ccc(Br)cc1Br)N1CCN(C(=O)c2ccco2)CC1 (centres undefined)", "value.kind": "Inhibition", "unit.name": "%", "observed": 91}
{"compound": "CC(=O)N(C)c1cccc(C(=O)Nc2ccc(-c3cccc(-c4nc5cc(C(F)(F)F)ccc5[nH]4)c3)cc2)c1", "value.kind": "Inhibition", "unit.name": "%", "observed": 94}
{"compound": "CC1CN(c2cc(=O)n(Cc3ccc(NC(=O)Nc4ccc(-c5ccccc5)cc4)cc3)cn2)CC(C)N1.O=C(O)C(F)(F)F (centres undefined)", "value.kind": "Inhibition", "unit.name": "%", "observed": 87}
{"compound": "CC(CN(C)C)C(=O)Nc1cccc(-c2ccc(-c3nc4cc(F)ccc4[nH]3)cc2)c1 (centres undefined)", "value.kind": "Inhibition", "unit.name": "%", "observed": 100}
{"compound": "N#Cc1ccc(-c2ccc(C(=O)NC3CCN(CCN4CCc5c(cccc5C(F)(F)F)C4)CC3)cc2)cc1", "value.kind": "Inhibition", "unit.name": "%", "observed": 98}
{"compound": "Cl.Cl.N=C(N)Nc1ccc(Cc2ccc(NC(=N)N)cc2)cc1", "value.kind": "Inhibition", "unit.name": "%", "observed": 93}
{"compound": "CCC(C)C#Cc1c(C)nc(N)nc1N (centres undefined)", "value.kind": "Inhibition", "unit.name": "%", "observed": 96}

Moving on to another compound below.
So what's the measured Inhibition for this one? CCc1cn2c3c(cc(C(=O)N[C@@H](Cc4ccccc4)[C@H](O)CNC4CCC4)cc13)N(C)S(=O)(=O)CC2
98
